# TARGET_OR_TEST_SYSTEM: P. falciparum apicoplast DNA polymerase (Pf-apPOL) (Plasmodium falciparum, UniProt Q8ILY1)
# Sequence (Q8ILY1 entry or part of it): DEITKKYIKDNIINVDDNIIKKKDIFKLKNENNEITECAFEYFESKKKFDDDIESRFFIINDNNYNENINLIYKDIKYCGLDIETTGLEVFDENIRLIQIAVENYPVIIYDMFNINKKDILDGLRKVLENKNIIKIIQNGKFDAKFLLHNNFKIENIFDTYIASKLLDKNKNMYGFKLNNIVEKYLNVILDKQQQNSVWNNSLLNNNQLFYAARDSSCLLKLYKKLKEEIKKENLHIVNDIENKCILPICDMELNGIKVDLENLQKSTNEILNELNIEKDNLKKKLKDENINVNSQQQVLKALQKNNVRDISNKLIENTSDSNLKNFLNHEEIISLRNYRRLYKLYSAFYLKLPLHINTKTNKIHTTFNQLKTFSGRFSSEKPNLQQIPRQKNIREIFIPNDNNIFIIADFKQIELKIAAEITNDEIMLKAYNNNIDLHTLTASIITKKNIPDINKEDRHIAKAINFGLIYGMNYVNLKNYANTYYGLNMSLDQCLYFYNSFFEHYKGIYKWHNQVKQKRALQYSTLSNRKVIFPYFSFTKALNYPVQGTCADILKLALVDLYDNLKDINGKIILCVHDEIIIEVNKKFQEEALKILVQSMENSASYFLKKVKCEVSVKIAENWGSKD
# MEASUREMENT_DESCRIPTION: Fluorescence-based high-throughput DNA polymerase assay (molecular beacon), primary screen and dose-response;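 note: test concentration in µM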
# Type: biochemical
# ASSAY_CONDITIONS: DRC-2; 90'; concentration 10
The following compounds are shown together with reported % inhibition ApPOL 90' values.
READOUT_TYPE: % inhibition ApPOL 90' (%)

COMPOUND | QUANTITATIVE_READOUT
COc1ccc(C)cc1NC(=O)Cn1ccc2c(=O)[nH]ccc21 [Molecule 15, COc1ccc(cc1NC(=O)Cn1ccc2c1cc[nH]c2=O)C] | 64
O=C(O)CCS(=O)(=O)c1ccc(-c2ccc(S(=O)(=O)CCC(=O)O)cc2)cc1 | 26
OC(C#Cc1ccccc1)c1ccco1 (stereo not drawn) | 62
CCCCCc1c2c(cc(O)c1C(=O)O)OC(=O)c1c(cc(OC)cc1C(=O)CCCC)O2 | 51
CCCCC(=O)N1CCc2c(nc3cc(-c4ccccc4Cl)[nH]n3c2=O)C1 | 30
O=c1[nH]c2ccc(Br)cc2c(-c2ccccc2)c1C1=NNC(c2ccco2)C1 (stereo not drawn) | 49
O=C(Nc1cccc(Cl)c1)Nc1nnc(-c2ccncc2)s1 | 65
Cc1cc(C)c2c(c1)C1C=CCC1C(c1ccc(C(=O)O)cc1)N2 (stereo not drawn) | 58
CCCCCCCCCCCCCCCCCC(=O)CCN(C)C | 2.69
